test system: CD2F1 mice, P388/ADR leukemia ip, median survival T/C; experiment: NCI In Vivo Anticancer Drug Screen. Data for tumor model P388 Leukemia resistant to Adriamycin; NSC 123127, Developed at Scr 08 (intraperitoneal) in CD2F1 (CDF1) mice; conditions: endpoint: median survival time; dose: 3.12 mg/kg/injection; schedule: Q01DX005 (ip); vehicle: Klucel (hydroxypropylcellulose) (HPC); higher = longer survival
Toxic doses and inconclusive results are not listed.
Consider the following molecules and their measured T/C readings.

[
  {
    "molecule": "CCOC1NC(=O)Oc2ccccc21 (centres undefined)",
    "target_desc": "CD2F1 mice, P388/ADR leukemia ip, median survival T/C",
    "T/C": "101 % of control"
  },
  {
    "molecule": "CN=C(NC)c1ccc(NC(=O)/C=C\\c2ccc(/C=C/C(=O)Nc3ccc(C(=NC)NC)cc3)cc2)cc1",
    "target_desc": "CD2F1 mice, P388/ADR leukemia ip, median survival T/C",
    "T/C": "109 % of control"
  },
  {
    "molecule": "COC1CC2C=C(C)/C=C/C=C/C(=O)NC(c3ccccc3)C/C=C/CCC(O)CC(=O)C2=C1O (centres undefined)",
    "target_desc": "CD2F1 mice, P388/ADR leukemia ip, median survival T/C",
    "T/C": "101 % of control"
  },
  {
    "molecule": "CC1=C(C(N)=O)C(c2ccccc2)NC(=S)N1 (centres undefined)",
    "target_desc": "CD2F1 mice, P388/ADR leukemia ip, median survival T/C",
    "T/C": "99 % of control"
  }
]

Source: PubChem BioAssay AID322
